# System: E. coli (ATCC 25922)
# EXPERIMENT DESCRIPTION: Bacterial association assay (MALDI-TOF-MS), E. coli
# Assay type: binding, Escherichia coli
# SETTINGS: E. coli 1.5 × 10^8 CFU, 20-100 μM compound, 37°C, 3 h, MALDI-TOF-MS; read-out: affinity binding constant (K)
No end group written: not given here.
QUANTITY KIND: Kd (nM)
Your answer is read as nM, so omit the unit and give the number.

Reported Kd for GGITLVPLP-NH2 (C-terminus assumed) [TBIA101] was 0.022

###

# EXPERIMENT DESCRIPTION: in vitro
# Assay type: cell-based
# SETTINGS: human, MT-4 cells
Residues, ends and D or L forms follow the SMILES beside them. *: point of attachment. DOTA = O=C(O)CN1CCN(CC(=O)O)CCN(CC(=O)*)CCN(CC(=O)O)CC1
QUANTITY KIND: CC50 at 120 h (µM)
Your answer is read as µM, so omit the unit and give the number.

Reported CC50 at 120 h for CC[C@H](C)[C@H](NC(=O)CNC(=O)CNC(=O)CN1CCN(CC(=O)O)CCN(CC(=O)O)CCN(CC(=O)O)CC1)C(=O)N[C@H](C(=O)N[C@@H](CC(C)C)C(=O)N[C@H](C(=O)N1CCC[C@H]1C(=O)N[C@@H](CC(C)C)C(=O)N1CCC[C@H]1C(N)=O)C(C)C)[C@@H](C)O [DOTA-TBIA101] ({DOTA}-GGITLVPLP-NH2) was 42.1
